Listed here: items and their measured IC50.
# target-under-test: equine serum butyrylcholinesterase (BChE, EC 3.1.1.8) (Equus caballus, UniProt P81908)
# Construct: equine serum butyrylcholinesterase (BChE, EC 3.1.1.8); purchased Sigma-Aldrich (USA); host or cells: equine serum
# Sequence (P81908 whole entry): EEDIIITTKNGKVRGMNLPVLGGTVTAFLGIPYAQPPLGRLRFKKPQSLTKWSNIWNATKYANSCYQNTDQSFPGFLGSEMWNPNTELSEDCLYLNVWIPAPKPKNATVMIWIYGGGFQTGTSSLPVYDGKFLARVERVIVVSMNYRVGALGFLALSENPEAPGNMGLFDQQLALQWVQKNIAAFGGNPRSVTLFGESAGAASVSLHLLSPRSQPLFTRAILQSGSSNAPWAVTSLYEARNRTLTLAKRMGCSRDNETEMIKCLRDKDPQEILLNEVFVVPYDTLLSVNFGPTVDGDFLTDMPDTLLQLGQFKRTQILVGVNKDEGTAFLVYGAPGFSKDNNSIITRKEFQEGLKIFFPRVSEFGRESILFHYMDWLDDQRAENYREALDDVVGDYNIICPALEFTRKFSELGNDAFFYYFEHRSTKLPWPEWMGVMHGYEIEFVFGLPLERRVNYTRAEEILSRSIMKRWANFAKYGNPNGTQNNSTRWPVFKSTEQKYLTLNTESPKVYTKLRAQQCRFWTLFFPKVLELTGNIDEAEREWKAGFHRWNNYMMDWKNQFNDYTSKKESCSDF
# test-method-notes: biochemical
# Assay type: biochemical
# condition-set: third read; read-out: BChE IC50 (µM) Third read
Give the value in µM but do not write µM after it.

INSERT INTO assay_data (smiles_text, reported_endpoint, unit, observed_value) VALUES
  ('Cc1cccn2cc(-c3ccc(Cl)c(Cl)c3)nc12', 'IC50', 'µM', 172),
  ('Cc1ccc2nc(-c3ccc(-c4ccccc4)cc3)cn2c1', 'IC50', 'µM', 528),
  ('Cc1cccn2cc(C34CC5CC(CC(C5)C3)C4)nc12.O', 'IC50', 'µM', 689);

Let us move to another entry and its IC50.
Task item: Entry `Cc1cccn2cc(-c3ccc(-c4ccccc4)cc3)nc12` has what IC50?
Reply: 312
